- Assay summary: Cytotoxicity, sulforhodamine B assay
- Type: cell-based
- Assay conditions: human, DU-145 prostate cancer cells
Property: IC50 at 48 h

[[record]]
compound = "C#CCCCCCCCCCOc1ccc(-c2nc3ccc(-c4nc5ccc(N6CCN(C)CC6)cc5[nH]4)cc3[nH]2)cc1 [DPA 153]"
result = "> 10 µM"

